We begin with a simple list: items and their reported remaining activity at 1 µM.
Biological target: TAO1 (Homo sapiens)
Sequence (Q7L7X3 1-1001): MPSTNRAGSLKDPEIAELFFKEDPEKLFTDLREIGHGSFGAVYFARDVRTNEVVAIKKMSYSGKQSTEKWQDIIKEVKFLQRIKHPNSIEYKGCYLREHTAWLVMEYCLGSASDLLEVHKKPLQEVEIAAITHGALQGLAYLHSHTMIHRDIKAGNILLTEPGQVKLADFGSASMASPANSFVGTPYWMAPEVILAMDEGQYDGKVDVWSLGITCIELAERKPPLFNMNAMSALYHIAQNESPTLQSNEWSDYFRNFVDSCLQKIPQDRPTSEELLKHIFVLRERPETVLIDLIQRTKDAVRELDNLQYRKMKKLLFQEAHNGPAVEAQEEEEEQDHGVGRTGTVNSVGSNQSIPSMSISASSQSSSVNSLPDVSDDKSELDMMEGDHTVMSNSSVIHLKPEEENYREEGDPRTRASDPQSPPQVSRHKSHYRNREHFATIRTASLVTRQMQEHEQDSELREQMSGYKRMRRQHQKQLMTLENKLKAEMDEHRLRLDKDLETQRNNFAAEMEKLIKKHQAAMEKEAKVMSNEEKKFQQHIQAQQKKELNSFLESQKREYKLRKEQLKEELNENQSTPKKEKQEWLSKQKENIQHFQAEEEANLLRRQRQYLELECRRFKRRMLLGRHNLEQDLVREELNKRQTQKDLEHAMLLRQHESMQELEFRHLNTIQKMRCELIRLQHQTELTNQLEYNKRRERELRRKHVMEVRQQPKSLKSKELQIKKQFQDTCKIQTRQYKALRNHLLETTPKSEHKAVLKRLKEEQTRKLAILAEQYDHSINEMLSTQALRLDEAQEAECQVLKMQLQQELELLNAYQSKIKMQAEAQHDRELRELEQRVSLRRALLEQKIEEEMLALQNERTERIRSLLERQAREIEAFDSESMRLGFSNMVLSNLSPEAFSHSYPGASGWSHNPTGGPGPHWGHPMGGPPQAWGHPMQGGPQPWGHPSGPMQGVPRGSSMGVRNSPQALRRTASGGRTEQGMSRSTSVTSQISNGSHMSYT
Assay: Kinase profiling (radiometric filter-binding)
Type: biochemical
Settings: TAO1, 1 µM inhibitor; read-out: Residual activity, %
// note: answer is a bare numeric in %

1) N=C(N)NCCC[C@@H](NC(=O)CNC(=O)[C@@H](CCCNC(=N)N)NC(=O)[C@@H](CCCNC(=N)N)NC(=O)CCCCCCCNCc1nc2c(sc3cc(Br)cnc32)c(=O)[nH]1)C(=O)N[C@H](CCCCN)C(N)=O
106

# ---- query molecule ----
**Query** Please look at this molecule and report its remaining activity at 1 µM: N=C(N)NCCC[C@@H](NC(=O)CNC(=O)[C@@H](CCCNC(=N)N)NC(=O)[C@@H](CCCNC(=N)N)NC(=O)CCCCCCCNCc1nc2c(sc3ccc(Br)cc32)c(=O)[nH]1)C(=O)N[C@H](CCCCN)C(N)=O
**Result** 49

---

Target: HIPK3 (Homo sapiens)
Sequence (Q9H422 whole entry): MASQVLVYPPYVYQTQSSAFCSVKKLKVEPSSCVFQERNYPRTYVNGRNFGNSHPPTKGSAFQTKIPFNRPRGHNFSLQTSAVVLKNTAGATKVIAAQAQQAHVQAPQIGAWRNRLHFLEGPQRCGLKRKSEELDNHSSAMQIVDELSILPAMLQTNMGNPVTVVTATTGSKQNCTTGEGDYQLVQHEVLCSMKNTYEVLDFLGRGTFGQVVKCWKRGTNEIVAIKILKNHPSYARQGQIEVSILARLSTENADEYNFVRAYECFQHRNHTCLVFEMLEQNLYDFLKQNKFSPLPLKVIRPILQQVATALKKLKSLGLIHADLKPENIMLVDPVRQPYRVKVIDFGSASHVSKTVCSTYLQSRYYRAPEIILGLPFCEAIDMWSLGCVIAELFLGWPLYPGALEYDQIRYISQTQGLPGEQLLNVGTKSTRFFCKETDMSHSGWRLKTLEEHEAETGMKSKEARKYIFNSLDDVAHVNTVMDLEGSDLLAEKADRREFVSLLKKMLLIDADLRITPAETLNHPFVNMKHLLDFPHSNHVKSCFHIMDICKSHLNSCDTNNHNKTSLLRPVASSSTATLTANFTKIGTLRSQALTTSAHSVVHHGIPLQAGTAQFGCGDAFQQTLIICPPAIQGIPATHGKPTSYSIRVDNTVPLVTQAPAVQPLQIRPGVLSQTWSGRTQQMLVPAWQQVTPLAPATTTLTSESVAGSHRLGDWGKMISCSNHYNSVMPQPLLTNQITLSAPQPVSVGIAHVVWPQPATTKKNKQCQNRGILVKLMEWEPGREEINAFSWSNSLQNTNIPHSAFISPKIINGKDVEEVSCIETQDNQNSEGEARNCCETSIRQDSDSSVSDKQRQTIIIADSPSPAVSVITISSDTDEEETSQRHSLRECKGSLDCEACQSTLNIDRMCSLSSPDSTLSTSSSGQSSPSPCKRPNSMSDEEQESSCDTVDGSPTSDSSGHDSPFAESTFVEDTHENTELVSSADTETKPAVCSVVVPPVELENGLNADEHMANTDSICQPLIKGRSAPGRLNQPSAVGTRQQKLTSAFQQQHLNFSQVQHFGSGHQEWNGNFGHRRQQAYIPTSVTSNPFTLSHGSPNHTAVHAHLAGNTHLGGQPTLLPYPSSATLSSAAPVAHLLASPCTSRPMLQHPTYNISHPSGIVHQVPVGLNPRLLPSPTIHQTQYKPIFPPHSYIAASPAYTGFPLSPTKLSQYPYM
Assay: Kinase profiling (radiometric filter-binding)
Format: biochemical
Conditions: HIPK3, 1 µM inhibitor; read-out: Residual activity, %
observation-type: remaining activity at 1 µM (%)
// note: answer is a bare numeric in %

**Query** Please look at this compound and report its remaining activity at 1 µM: N=C(N)NCCC[C@@H](NC(=O)CNC(=O)[C@@H](CCCNC(=N)N)NC(=O)[C@@H](CCCNC(=N)N)NC(=O)CCCCCCCNCc1nc2c(sc3ccc(Br)cc32)c(=O)[nH]1)C(=O)N[C@H](CCCCN)C(N)=O [Compound 2, BBTP-Aoc-(D-Arg)2-Gly-D-Arg-D-Lys-NH2]
**Result** 72

---

Target: ERK5 (Homo sapiens)
Sequence (Q13164 whole entry): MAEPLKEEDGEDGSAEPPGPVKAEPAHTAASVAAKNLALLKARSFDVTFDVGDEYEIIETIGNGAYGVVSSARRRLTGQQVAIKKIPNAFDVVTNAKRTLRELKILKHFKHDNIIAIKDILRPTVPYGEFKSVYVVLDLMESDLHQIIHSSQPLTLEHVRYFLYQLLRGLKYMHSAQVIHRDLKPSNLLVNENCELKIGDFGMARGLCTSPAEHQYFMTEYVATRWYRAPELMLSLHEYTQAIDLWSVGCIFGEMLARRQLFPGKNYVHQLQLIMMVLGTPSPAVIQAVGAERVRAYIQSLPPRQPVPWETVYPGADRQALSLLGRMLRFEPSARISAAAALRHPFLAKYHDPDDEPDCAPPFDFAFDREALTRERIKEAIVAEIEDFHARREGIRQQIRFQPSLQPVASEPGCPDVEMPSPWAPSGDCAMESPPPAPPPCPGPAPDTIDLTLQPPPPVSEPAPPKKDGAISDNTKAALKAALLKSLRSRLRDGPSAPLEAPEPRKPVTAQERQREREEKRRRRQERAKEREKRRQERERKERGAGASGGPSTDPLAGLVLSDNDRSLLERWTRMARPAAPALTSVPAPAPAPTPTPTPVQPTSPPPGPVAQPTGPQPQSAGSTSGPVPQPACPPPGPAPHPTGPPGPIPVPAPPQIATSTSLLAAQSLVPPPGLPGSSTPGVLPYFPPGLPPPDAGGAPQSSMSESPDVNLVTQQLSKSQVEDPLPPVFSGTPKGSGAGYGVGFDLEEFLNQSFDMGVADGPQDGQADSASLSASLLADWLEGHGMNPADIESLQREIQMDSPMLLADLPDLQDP
Assay: Kinase profiling (radiometric filter-binding)
Format: biochemical
Settings: ERK5, 1 µM inhibitor; read-out: Residual activity, %
Square brackets hold non-standard residues; d marks the D form. Peptide text beside a SMILES is read from it. * marks the point of attachment. X3 = O=C(CCCCCNCc1nc2c(sc3cc(Br)cnc32)c(=O)[nH]1)*
observation-type: remaining activity at 1 µM (%)
// note: answer is a bare numeric in %

Some entries whose results are on file:
1) N=C(N)NCCC[C@@H](NC(=O)CCCCCNC(=O)Cn1cnc2c(I)c(I)c(I)c(I)c21)C(=O)N[C@H](CCCNC(=N)N)C(=O)N[C@H](CCCNC(=N)N)C(=O)N[C@H](CCCNC(=N)N)C(=O)N[C@H](CCCNC(=N)N)C(=O)N[C@H](CCCNC(=N)N)C(=O)N[C@H](CCCCN)C(N)=O
47
2) N=C(N)NCCC[C@@H](NC(=O)CCCCCNCc1nc2c(sc3cc(Br)cnc32)c(=O)[nH]1)C(=O)N[C@H](CCCNC(=N)N)C(=O)N[C@H](CCCNC(=N)N)C(=O)N[C@H](CCCNC(=N)N)C(=O)N[C@H](CCCNC(=N)N)C(=O)N[C@H](CCCNC(=N)N)C(=O)N[C@H](CCCCN)C(N)=O [ARC-3126, BPTP-Ahx-(D-Arg)6-D-Lys-NH2] (X3-[dR][dR][dR][dR][dR][dR][dK]-NH2)
92

# ---- query compound ----
**Query** Please look at this compound and report its remaining activity at 1 µM: N=C(N)NCCC[C@@H](NC(=O)CNC(=O)[C@@H](CCCNC(=N)N)NC(=O)[C@@H](CCCNC(=N)N)NC(=O)Cn1cc(CNCc2nc3c(sc4ccc(Br)cc43)c(=O)[nH]2)nn1)C(=O)N[C@H](CCCCN)C(N)=O
**Result** 93

---

Biological target: MEKK1 (Homo sapiens, UniProt Q13233)
Sequence (Q13233 whole entry): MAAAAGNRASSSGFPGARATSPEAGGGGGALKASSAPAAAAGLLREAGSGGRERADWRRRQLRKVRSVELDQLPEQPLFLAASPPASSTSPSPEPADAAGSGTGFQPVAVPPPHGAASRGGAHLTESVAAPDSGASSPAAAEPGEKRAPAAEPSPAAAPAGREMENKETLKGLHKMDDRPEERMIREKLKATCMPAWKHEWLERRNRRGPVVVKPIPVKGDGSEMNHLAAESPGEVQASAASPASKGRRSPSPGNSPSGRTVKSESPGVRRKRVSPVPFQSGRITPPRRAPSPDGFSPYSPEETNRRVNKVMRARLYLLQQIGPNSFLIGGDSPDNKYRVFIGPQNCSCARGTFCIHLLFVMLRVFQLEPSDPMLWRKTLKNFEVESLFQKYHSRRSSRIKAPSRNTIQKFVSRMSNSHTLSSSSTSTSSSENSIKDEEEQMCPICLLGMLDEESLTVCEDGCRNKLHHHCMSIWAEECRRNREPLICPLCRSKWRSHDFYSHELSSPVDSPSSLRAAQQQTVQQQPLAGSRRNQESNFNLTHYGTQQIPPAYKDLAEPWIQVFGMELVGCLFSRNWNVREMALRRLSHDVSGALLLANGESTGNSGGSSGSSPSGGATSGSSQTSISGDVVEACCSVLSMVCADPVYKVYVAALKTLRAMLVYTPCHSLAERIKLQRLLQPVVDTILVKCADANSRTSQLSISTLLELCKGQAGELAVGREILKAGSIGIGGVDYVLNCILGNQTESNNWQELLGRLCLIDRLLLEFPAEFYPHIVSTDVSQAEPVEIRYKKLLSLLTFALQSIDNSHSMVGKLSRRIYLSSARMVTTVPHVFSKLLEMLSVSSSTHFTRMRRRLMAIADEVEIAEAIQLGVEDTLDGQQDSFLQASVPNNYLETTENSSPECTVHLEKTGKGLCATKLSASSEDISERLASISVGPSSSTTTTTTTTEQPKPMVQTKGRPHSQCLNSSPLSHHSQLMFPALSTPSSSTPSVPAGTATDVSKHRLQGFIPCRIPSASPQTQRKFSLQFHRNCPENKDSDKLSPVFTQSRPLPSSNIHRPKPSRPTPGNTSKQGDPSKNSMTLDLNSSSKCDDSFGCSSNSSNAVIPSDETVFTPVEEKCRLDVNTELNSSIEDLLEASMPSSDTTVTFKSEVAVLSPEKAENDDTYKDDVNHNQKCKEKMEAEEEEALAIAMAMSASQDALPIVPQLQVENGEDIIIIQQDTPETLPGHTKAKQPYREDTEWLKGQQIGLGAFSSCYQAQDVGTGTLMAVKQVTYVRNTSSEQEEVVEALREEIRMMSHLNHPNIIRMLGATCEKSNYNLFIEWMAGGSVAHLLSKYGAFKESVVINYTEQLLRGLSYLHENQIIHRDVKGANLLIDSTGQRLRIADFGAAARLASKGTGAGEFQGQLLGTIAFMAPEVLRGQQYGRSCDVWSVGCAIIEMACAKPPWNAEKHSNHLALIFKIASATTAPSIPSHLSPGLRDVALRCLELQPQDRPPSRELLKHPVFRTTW
Test: Kinase profiling (radiometric filter-binding)
Type: biochemical
Conditions: MEKK1, 1 µM inhibitor; read-out: Residual activity, %
Square brackets hold non-standard residues; d marks the D form. Peptide text beside a SMILES is read from it. * marks the point of attachment. X3 = O=C(CCCCCNCc1nc2c(sc3cc(Br)cnc32)c(=O)[nH]1)*
We begin with a simple list: items and their reported remaining activity at 1 µM.
// note: answer is a bare numeric in %

Some entries whose results are on file:
1) N=C(N)NCCC[C@@H](NC(=O)CCCCCNC(=O)Cn1cnc2c(I)c(I)c(I)c(I)c21)C(=O)N[C@H](CCCNC(=N)N)C(=O)N[C@H](CCCNC(=N)N)C(=O)N[C@H](CCCNC(=N)N)C(=O)N[C@H](CCCNC(=N)N)C(=O)N[C@H](CCCNC(=N)N)C(=O)N[C@H](CCCCN)C(N)=O
77
2) N=C(N)NCCC[C@@H](NC(=O)CCCCCNCc1nc2c(sc3cc(Br)cnc32)c(=O)[nH]1)C(=O)N[C@H](CCCNC(=N)N)C(=O)N[C@H](CCCNC(=N)N)C(=O)N[C@H](CCCNC(=N)N)C(=O)N[C@H](CCCNC(=N)N)C(=O)N[C@H](CCCNC(=N)N)C(=O)N[C@H](CCCCN)C(N)=O [ARC-3126, BPTP-Ahx-(D-Arg)6-D-Lys-NH2] (X3-[dR][dR][dR][dR][dR][dR][dK]-NH2)
103
3) N=C(N)NCCC[C@@H](NC(=O)CNC(=O)[C@@H](CCCNC(=N)N)NC(=O)[C@@H](CCCNC(=N)N)NC(=O)CCCCCCCNCc1nc2c(sc3ccc(Br)cc32)c(=O)[nH]1)C(=O)N[C@H](CCCCN)C(N)=O
119
4) N=C(N)NCCC[C@@H](NC(=O)CNC(=O)[C@@H](CCCNC(=N)N)NC(=O)[C@@H](CCCNC(=N)N)NC(=O)Cn1cc(CNCc2nc3c(sc4ccc(Br)cc43)c(=O)[nH]2)nn1)C(=O)N[C@H](CCCCN)C(N)=O
98

# ---- query molecule ----
**Query** Please look at this molecule and report its remaining activity at 1 µM: N=C(N)NCCC[C@@H](NC(=O)CNC(=O)[C@@H](CCCNC(=N)N)NC(=O)[C@@H](CCCNC(=N)N)NC(=O)CCCCCCCNCc1nc2c(sc3cc(Br)cnc32)c(=O)[nH]1)C(=O)N[C@H](CCCCN)C(N)=O
**Result** 108

---

Target: PIM2 (Homo sapiens, UniProt Q9P1W9)
Sequence (Q9P1W9 whole entry): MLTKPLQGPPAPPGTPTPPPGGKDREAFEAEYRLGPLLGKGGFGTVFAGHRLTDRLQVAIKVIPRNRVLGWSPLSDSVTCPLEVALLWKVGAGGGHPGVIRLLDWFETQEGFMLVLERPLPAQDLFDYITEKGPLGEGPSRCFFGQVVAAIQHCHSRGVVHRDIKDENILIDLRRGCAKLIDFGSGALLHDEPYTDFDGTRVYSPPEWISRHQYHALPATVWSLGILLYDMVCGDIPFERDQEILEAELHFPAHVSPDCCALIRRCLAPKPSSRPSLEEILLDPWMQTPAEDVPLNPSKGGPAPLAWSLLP
Assay: Binding/displacement assay with FA or TGLI readout
Parameters: made in house
Settings: mean ± SEM, N = 2
We begin with a simple list: items and their reported Kd.
// note: answer is a bare numeric in nM

1) N=C(N)NCCC[C@@H](NC(=O)CNC(=O)[C@@H](CCCNC(=N)N)NC(=O)[C@@H](CCCNC(=N)N)NC(=O)CCCCCCCNC(=O)[C@@H]1C[C@@H](O)CN1Cc1nc2c(sc3ccc(Br)cc32)c(=O)[nH]1)C(=O)N[C@H](CCCCN)C(N)=O
447

**Query** Please look at this compound and report its Kd: CN1C(=CC=CC=CC2=[N+](CCCCCC(=O)NCCCC[C@@H](NC(=O)[C@@H](CCCNC(=N)N)NC(=O)CNC(=O)[C@@H](CCCNC(=N)N)NC(=O)[C@@H](CCCNC(=N)N)NC(=O)CCCCCCCNCc3nc4c(sc5ccc(Br)cc54)c(=O)[nH]3)C(N)=O)c3ccccc3C2(C)C)C(C)(C)c2ccccc21
**Result** 5.2
